experiment: Inhibition of jack beans alpha-mannosidase; parameters: species or system Canavalia ensiformis
test_readout: Ki

1) O=S1(=O)NC[C@@H]2[C@@H](O)[C@H](O)[C@H](O)C(O)N21 (some centres not stated): 150 µM
2) O=S1(=O)NC[C@@H]2[C@@H](O)[C@H](O)[C@@H](O)C(O)N21 (some centres not stated): 320 µM

* * *

Entries and their pKi
assay: Inhibition of yeast alpha-glucosidase; parameters: species or system Saccharomyces cerevisiae
pKi: −log10 of the molar value.
test_readout: pKi

1. O=C1OC[C@@H]2[C@@H](O)[C@H](O)[C@@H](O)[C@@H](O)N12: 4.40
2. O[C@@H]1[C@@H](O)[C@@H](O)N2C(=S)NC[C@@H]2[C@H]1O: 2.38
3. O[C@@H]1[C@@H](O)[C@@H](O)N2C(=S)OC[C@@H]2[C@H]1O: 5.66
4. O=C1NC[C@@H]2[C@@H](O)[C@H](O)[C@@H](O)[C@@H](O)N12: 2.24
